# PROTOCOL DESCRIPTION: in vitro
# EXPERIMENTAL CONTEXT: African green monkey
MEASUREMENT LABEL: CC50 (µg/mL)
Give your result in µg/mL as a bare value.

Prompt: // returns reported CC50 for input C[C@@H]1CC[C@H]2[C@@H](C)C(=O)O[C@@H]3O[C@@]4(C)CC[C@@H]1[C@]32OO4
Response: 61

Values were extracted from patent US20240093198A1.
